molecular target: HIV-1 Env of pseudovirus TR0.11 (HIV-1); test: cell-based or functional assay
A collection of binders and their measured IC50, pseudovirus neutralization (TZM-bl assay)
Hi, when you answer, please include the unit after the number. Thanks!

# input binder: 1469_M23 (PG16) (TCN-118) (antibody, V domains shown) VH: QEKLVESGGGVVQPGGSLRLSCLASGFTFHKYGMHWVRQAPGKGLEWVALISDDGMRKYHSDSMWGRVTISRDNSKNTLYLQFSSLKVEDTAMFFCAREAGGPIWHDDVKYYDFNDGYYNYHYMDVWGKGTTVTVSS VL: QSALTQPASVSGSPGQTITISCNGTRSDVGGFDSVSWYQQSPGRAPKVMVFDVSHRPSGISNRFSGSKSGNTASLTISGLHIEDEGDYFCSSLTDRSHRIFGGGTKLTVLG ; wanted: its IC50, pseudovirus neutralization (TZM-bl assay)
7.52 µg/mL

Lookup 1456_A12 (PG16) (TCN-117) (antibody, V domains shown) VH: HEQLVEAGGGVVQPGGSLRLSCLASGFTFHKYGMHWVRQAPGKGLEWVALISDDGMRKYHSDSMWGRVTISRDNSKNTLYLQFSSLRVEDTAMFFCAREAGGPIWHDDVKYYDFNDGYYNYHYMDVWGKGTKVTVSS VL: QSALTQPASVSGSPGQTITISCNGTSRDVGGFDSVSWYQQSPGKAPKVMVFDVSHRPSGMSNRFSGSKSGNTASLTISGLHIEDEGDYFCSSLTDRSHRIFGGGTKLTVLG
3.05 µg/mL

Lookup 1489_I13 (PG16) (TCN-120) (antibody, V domains shown) VH: QEQLLESGGGVVQPGGSLRLSCLASGFTFHKYGMHWVRQAPGKGLEWVALISDDGMRKYHSNSMWGRVTISRDNSKNTLYLQFSSLKVEDTAMFFCAREAGGPIWHDDVKYYDFNDGYYNYHYMDVWGKGTTVTVSS VL: QSALTQPASVSGSPGQTITISCNGTSSDVGGFDSVSWYQQSPGKAPKVMVFDVSHRPSGISNRFSGSKSGNTASLTISGLHIEDEGDYFCSSLTDRSHRIFGGGTKVTVLG
10.9 µg/mL

Lookup 1503_H05 (PG16) (TCN-119) (antibody, V domains shown) VH: QEKLVESGGGVVQPGGSLRLSCLASGFTFHKYGMHWVRQAPGKGLEWVALISDDGMRKYHSDSMWGRVTISRDNSKNTLYLQFSSLKVEDTAMFFCAREAGGPIWHDDVKYYDFNDGYYNYHYMDVWGKGTIVTVSS VL: QSALTQPASVSGSPGQTITISCNGTRSDVGGFDSVSWYQQSPGKAPKVMVFDVSHRPSGISNRFSGSKSGNTASLTISGLHIEDEGDYFCSSLTDRSHRIFGGGTKVTVLG
4.3 µg/mL
